Form: system (HCT-15), quantity (GI50), values below.

>  <molecule>
COc1ccc(NC2C(=O)C3(C)CCC2C3(C)C)cc1 (stereo not drawn)

>  <system name>
HCT-15

>  <GI50>
> 100 µM

$$$$
>  <molecule>
O=C(O)c1ccc(SSc2ccc(C(=O)O)cn2)nc1

>  <system name>
HCT-15

>  <GI50>
> 100 µM

$$$$

Now consider the entry below.
# GI50 lookup, item C/C(Cc1ccccc1)=N\NC(N)=S
> 100 µM

====

- Tested on: HCT-116
- experimental protocol: NCI tumour cell line growth inhibition, 48 h
Activity calls are given as the source filed them. No stated cut-off is given here; in the data, active = GI50 up to about 1.1 µM and inactive = higher.
property name: GI50

Answered cases to consult:
>  <compound>
N#Cc1ccccc1/C=N/O

>  <GI50>
> 44.2 µM (inactive)

$$$$
>  <compound>
C#CCNC(=O)N(CC#C)N=O

>  <GI50>
> 100 µM (inactive)

$$$$
>  <compound>
C[C@]12CC[C@H]3[C@@H](CC=C4C[C@@H](N5CCCC5)CC[C@@]43C)[C@@H]1C[C@H](N1CCOCC1)[C@@H]2O

>  <GI50>
> 100 µM (inactive)

$$$$
>  <compound>
c1ccc(-c2c[nH]c(SC(c3ccccc3)c3ccccc3)n2)cc1

>  <GI50>
12.7 µM (inactive)

$$$$
>  <compound>
Cc1oc2ccccc2c(=O)c1Cn1nnc2ccccc21

>  <GI50>
59.7 µM (inactive)

$$$$
>  <compound>
c1cc2cc(Cc3ccc4[nH]ccc4c3)ccc2[nH]1

>  <GI50>
17.6 µM (inactive)

$$$$
>  <compound>
CC(=O)OCCCOCn1c(Cc2ccccc2)c(C)c(=O)[nH]c1=O

>  <GI50>
> 100 µM (inactive)

$$$$
>  <compound>
CO/C(=N\N=C\c1ccc(C(F)(F)F)cc1)c1ccncc1

>  <GI50>
> 10 µM (inactive)

$$$$
>  <compound>
O=C1OC(c2ccccc2)N(C(=O)c2ccccc2)C1Cc1ccc(OCc2ccccc2)cc1 (stereo not given)

>  <GI50>
> 100 µM (inactive)

$$$$
>  <compound>
O=c1[nH]c(-c2ccccc2)nc2ccc(Cl)cc12

>  <GI50>
> 100 µM (inactive)

$$$$

Enter reported GI50 observed with HCT-116 for Cc1c(Cl)nc(Nc2nc3ccccc3[nH]2)nc1Cl
> 100 µM (inactive)

Kindly state the measured GI50 obtained for CC(C)(C)c1ccccc1NS(=O)(=O)c1ccccc1 with HCT-116.
48 µM (inactive)

GET /values?readout=GI50&system=HCT-116&item= CC(=O)OC[C@H]1[C@@H]2C(CC[C@]13CO3)OC(=O)CC(C)[C@]2(C)CCc1ccoc1 (stereo not given in full)
> 100 µM (inactive)

Give HCT-116 GI50 for CCOC(=O)[C@@H]1ON2OC(OC3CCCC3(c3ccccc3)c3ccccc3)C(OC(C)=O)[C@H]3OC(=O)[C@@H]1C32 (stereo not given in full)
29.6 µM (inactive)

# query: GI50 | item CN(C)/C=N/c1c2ccccc2nc2ccccc12 | system: HCT-116
3.57 µM (inactive)
